# System: OVCAR-5 ovarian
# testDescription: NCI tumour cell line growth inhibition, 48 h; in the data active means GI50 below about 0.43 µM; inactive means the rest
Outcome field: choose from 1.0 (active), 0.0 (inactive)

Completed entries (count: 2):
| molecule | targetOfAssay | assignedCategory |
| --- | --- | --- |
| CCN(CC)CCCC(C)Nc1nc(C)cc(Nc2ccc3nc(C)cc(N)c3c2)n1 (configuration not stated) | OVCAR-5 ovarian | 0.0 |
| CN1CCN(c2ccc(Nc3nc(N)c(C(=O)c4ccc5c(c4)OCCO5)s3)cc2)CC1 | OVCAR-5 ovarian | 0.0 |

Record lookup: outcome of this test for "Cc1cc2cn3c4ccc(O)cc4[nH]c(=O)c3c2cc1C" ?
1.0

Record lookup: outcome of this test for OC(COc1ccc(F)cc1)Cn1cnc2c(Cl)ncnc21 (configuration not stated) ?
0.0

Record lookup: outcome of this test for "O=C(Nc1ccccc1O)c1ccc(CNc2ccnc(C(F)(F)F)c2)cc1" ?
0.0

Record lookup: outcome of this test for CCN(CC)c1ccc2c(c1)Oc1nc(N)c(C#N)c(N)c1C2Sc1ccc(OC)cc1 (configuration not stated) ?
0.0

Record lookup: outcome of this test for "CN(C)c1ncc(-c2ccc(C(F)(F)F)cc2)c(NC2CCCCCC2)n1" ?
0.0

----------
# Tested on: CCRF-CEM leukemia
# testDescription: NCI tumour cell line growth inhibition, 48 h
measurementKind: GI50

| molecule | GI50 |
| --- | --- |
| COc1ccc(/C=C2\CC(C)CC3C2=NN(C(C)=O)C3c2ccc(OC)cc2)cc1 (stereo unspecified) | 22000 nM |

Item under review: "CS(=O)(=O)CCNCc1ccc(-c2ccc3ncnc(Nc4ccc(OCc5cccc(F)c5)c(C(F)(F)F)c4)c3c2)o1" . Reported GI50?
4800 nM

Item under review: "CS(=O)(=O)Nc1cccc(-c2cc(-c3ccccc3Cl)c(C#N)c(N)n2)c1" . Reported GI50?
562 nM

Item under review: "COC(=O)c1c(O)c([N+](=O)[O-])cc2c1c1c(n2Cc2ccccc2)C(=O)c2ccccc2C1=O" . Reported GI50?
15800 nM

Item under review: "CN1CCN(c2ccc(Nc3nc(N)c(C(=O)c4ccc5c(c4)OCCO5)s3)cc2)CC1" . Reported GI50?
4660 nM

Item under review: Nc1ccccc1NC(=O)c1ccc(CCCC(=O)Nc2ccc(C3CC3N)cc2)cc1 (stereo unspecified) . Reported GI50?
2630 nM

----------
Reported TGI values for a set of compounds
# Tested on: OVCAR-5 ovarian
# testDescription: NCI tumour cell line growth inhibition, 48 h

Item under review: "O=C(O)CCC/C=C\C[C@H]1C=CC(=O)/C1=C/C[C@@H](O)CCc1cccc(C(F)(F)F)c1" . Reported TGI?
11.8 µM

Item under review: "COC1=CC(=O)C(OC)=C(OC)C1=O" . Reported TGI?
33 µM

Item under review: "c1ccc(P(CCP(c2ccccn2)c2ccccn2)c2ccccc2)cc1" . Reported TGI?
> 100 µM

Item under review: "CS(=O)(=O)c1c(N)c2nc(Cl)cn2c2nc3ccccc3nc12" . Reported TGI?
> 100 µM

Item under review: "O=C(Cc1csc(N=Nc2c(O)[nH]c3ccccc23)n1)Nc1ccccc1" . Reported TGI?
> 100 µM

Item under review: "O=C(O)c1cc2ccccc2oc1=O" . Reported TGI?
> 100 µM

Item under review: "Cc1nc([C@H]2CC[C@H]3[C@@H]4CCC5=CC(=O)CC[C@]5(C)[C@H]4CC[C@]23C)cs1" . Reported TGI?
> 100 µM

----------
# Test system: HCT-116 colon
# testDescription: NCI tumour cell line growth inhibition, 48 h
Reported GI50 values for a set of compounds

// solved cases for GI50 follow
| compound | targetOfAssay | measurementKind | result |
| --- | --- | --- | --- |
| Cc1cc(Nc2c3ccccc3nc3ccccc23)ccc1NS(C)(=O)=O | HCT-116 colon | GI50 | 3.12 µM |
| O=C(Nc1ccccc1O)c1ccc(CNc2ccnc(C(F)(F)F)c2)cc1 | HCT-116 colon | GI50 | 3.96 µM |
| CN(C)C/C=C/C(=O)Nc1cc2c(Nc3ccc(F)c(Cl)c3F)ncnc2cc1OCCOC(F)F | HCT-116 colon | GI50 | 0.625 µM |
| CN1CCN(c2ccc(Nc3nc(N)c(C(=O)c4ccc5c(c4)OCCO5)s3)cc2)CC1 | HCT-116 colon | GI50 | 2.27 µM |
| O=[N+]([O-])c1ccccc1NC1c2ccccc2Oc2ccccc21 | HCT-116 colon | GI50 | 4.08 µM |
| CN(C)c1ncc(-c2ccc(C(F)(F)F)cc2)c(NC2CCCCCC2)n1 | HCT-116 colon | GI50 | 10.4 µM |
| CCn1cc(-c2ccnc3[nH]ccc23)c(-c2cccc(NC(=O)Nc3ccc(OCc4ccccc4)cc3)c2)n1 | HCT-116 colon | GI50 | 12.1 µM |
| O=C(O)CCC/C=C\C[C@H]1C=CC(=O)/C1=C/C[C@@H](O)CCc1cccc(C(F)(F)F)c1 | HCT-116 colon | GI50 | 1.27 µM |
| O=c1c(O)cccc2cc(O)c(O)c(O)c12 | HCT-116 colon | GI50 | 7.67 µM |
| COc1cc(Nc2ncc(F)c(Nc3ccc4c(n3)NC(=O)C(C)(C)O4)n2)cc(OC)c1OC | HCT-116 colon | GI50 | > 100 µM |

Kindly state the measured GI50 obtained for "CC#C/C(=N\OC[C@H]1COCCN1)c1ccc2ncnc(Nc3ccc(OCc4cccc(F)c4)c(Cl)c3)c2c1" with HCT-116 colon.
1.69 µM

Kindly state the measured GI50 obtained for "COC1=CC(=O)C(OC)=C(OC)C1=O" with HCT-116 colon.
16 µM

Kindly state the measured GI50 obtained for CCN(CC)CCCC(C)Nc1nc(C)cc(Nc2ccc3nc(C)cc(N)c3c2)n1 (stereo not drawn) with HCT-116 colon.
32.4 µM

----------
# System: SK-MEL-28 melanoma
# testDescription: NCI tumour cell line growth inhibition, 48 h
measurementKind: GI50

| molecule | GI50 |
| --- | --- |
| CN(C)C/C=C/C(=O)Nc1cc2c(Nc3ccc(F)c(Cl)c3F)ncnc2cc1OCCOC(F)F | 2.29 µM |
| COc1cc(/C=C/c2cc(/C=C/c3ccc(O)c(OC)c3)nc(N)n2)ccc1O | 1.85 µM |
| CN1CCN(c2ccc(Nc3nc(N)c(C(=O)c4ccc5c(c4)OCCO5)s3)cc2)CC1 | 4.6 µM |

Item under review: "S=C(Nc1ccc(Cl)cc1)Nc1ccc(-c2nc3ccccc3o2)cc1" . Reported GI50?
20.6 µM

Item under review: Cc1cc(O)c(C2=NN(c3ccc(S(N)(=O)=O)cc3)C(c3ccc(N(C)C)cc3)C2)c(C)c1Cl (centres undefined) . Reported GI50?
19.4 µM

Item under review: "N#CC(C#N)N=Nc1ccc(Br)cc1" . Reported GI50?
3.41 µM

Item under review: "COc1ccc(-c2nc(C(=O)c3ccccc3)n(CC(=O)c3ccccc3)c2-c2ccc(OC)cc2)cc1" . Reported GI50?
> 100 µM

Item under review: "COC(=O)c1c(O)c([N+](=O)[O-])cc2c1c1c(n2Cc2ccccc2)C(=O)c2ccccc2C1=O" . Reported GI50?
34.9 µM

Item under review: "O=C(O)c1ccc(S(=O)(=O)Nc2ccc3oc4c(c3c2)C(=O)CCC4)cc1" . Reported GI50?
> 100 µM

----------
# Tested on: HOP-62 NSCLC
# testDescription: NCI tumour cell line growth inhibition, 48 h
Reported TGI values for a set of compounds

| compound | TGI |
| --- | --- |
| Oc1ccccc1C=Nc1ccc(-c2nc3ccccc3[nH]2)cc1 | > 100 µM |
| COc1ccc(NC(=O)CC/C(CC(=O)C(C)(C)C)=N\NC(=O)C(N)=O)cc1 | > 100 µM |
| COc1cc(C)cc2c1c(=O)c1ccccc1n2C | > 100 µM |
| CN(C)CCNC(=O)c1cccc2c(Nc3ccc(S(N)(=O)=O)cc3)c3ccccc3nc12 | 11.6 µM |

Item under review: CC(=O)N1c2ccccc2NC2=C(C(=O)N(Cc3ccccc3)C2(C)C)C1c1ccco1 (stereo unspecified) . Reported TGI?
> 25 µM

Item under review: "O=[N+]([O-])/C=C/c1cc2ccccc2[nH]1" . Reported TGI?
32.4 µM

----------
Reported TGI values for a set of molecules
# Tested on: SK-MEL-2 melanoma
# testDescription: NCI tumour cell line growth inhibition, 48 h

// solved cases for TGI follow
| molecule | targetOfAssay | TGI |
| --- | --- | --- |
| CCOC(=O)C(C(=O)c1ccccc1C(=O)OC)=P(c1ccccc1)(c1ccccc1)c1ccccc1 | SK-MEL-2 melanoma | > 10 µM |
| NC(=O)c1coc(C2OC(CO)C(O)C2O)n1 (stereo unspecified) | SK-MEL-2 melanoma | > 100 µM |
| CC(C)(C)NC(=O)NC12CC3CC(CC(F)(C3)C1)C2 | SK-MEL-2 melanoma | > 100 µM |
| O=C1CC(=O)NC(=NN2C(=O)/C(=C/c3ccccc3)N=C2c2ccccc2)N1 | SK-MEL-2 melanoma | > 100 µM |
| O=C(Cc1csc(N=Nc2c(O)[nH]c3ccccc23)n1)Nc1ccccc1 | SK-MEL-2 melanoma | > 100 µM |

Kindly state the measured TGI obtained for CC(=O)O[C@H]1CCC2[C@@H]3CCC4=C(O)C(=O)C(C#N)C[C@]4(C)C3CC[C@@]21C (stereo partly specified) with SK-MEL-2 melanoma.
> 100 µM

Kindly state the measured TGI obtained for O=c1[nH]c2cc([N+](=O)[O-])ccc2nc1/C(=N/Nc1ccccc1)C(O)c1ccc(C(O)/C(=N\Nc2ccccc2)c2cnc3cc([N+](=O)[O-])ccc3n2)cc1 (stereo unspecified) with SK-MEL-2 melanoma.
> 100 µM

Kindly state the measured TGI obtained for "Cn1c(-c2cccs2)cc(-c2cccs2)c1-c1ccco1" with SK-MEL-2 melanoma.
> 100 µM

Kindly state the measured TGI obtained for "NC(=O)NC(=O)c1cccc(CNc2ccc(C(=O)N[C@@H](CCC(=O)O)C(=O)O)cc2)n1" with SK-MEL-2 melanoma.
> 100 µM
